Data provenance is patent US20060039887A1.

# assayInfo: pH of 1 wt % solution in water
# Format: physicochemical
# measurementParameters: 1 wt % (1%) water solution
Listing: pH of 1 wt % solution in water of selected compounds
measuredEndpoint: pH of 1 wt % solution in water

compound: O=C1O[C@H]([C@@H](O)CO)C(O)=C1O
measuredValue: 2.6
//
compound: NC(=O)c1cccnc1 [niacinamide]
measuredValue: 6.3
//
compound: NC(=O)c1cccnc1.O=C1O[C@H]([C@@H](O)CO)C(O)=C1O [Niacinamide ascorbate]
measuredValue: 3.7
//
compound: Nc1ncnc2c1ncn2[C@@H]1O[C@H](COP(=O)(O)OP(=O)(O)OP(=O)(O)O)[C@@H](O)[C@H]1O [ATP, adenosine triphosphate]
measuredValue: 2.0
//
compound: O=C(O)[C@H](O)[C@@H](O)[C@H](O)[C@H](O)CO
measuredValue: 2.5
